Assay explanation: Dissociation constant, pKa of the compound
Type: physicochemical
Reported metric: pKa
Respond numerically, and do not add a unit to the figure.

Problem: Given the molecule `NC[C@H](COCc1cccc2ccccc12)OC(=O)NCCCCCCO` , what is its reported pKa?
Solution: 8.9
